Measured relative viability by item
Test system: HCC-15
assay.info: relative viability (nuclei count vs DMSO), 5 days (fraction); higher = more cells survive
settings: first compound 0.002 µM
The answer should be written as a number, with no unit following it.

Use the examples below as a reference point.
| compound | study.system | endpoint.result |
| --- | --- | --- |
| CC(=O)O[C@@]12CO[C@@H]1C[C@H](O)[C@@]1(C)C(=O)[C@H](O)C3=C(C)[C@@H](OC(=O)[C@H](O)[C@@H](NC(=O)OC(C)(C)C)c4ccccc4)C[C@@](O)([C@@H](OC(=O)c4ccccc4)[C@H]21)C3(C)C [Docetaxel] + Nc1nc2[nH]cc(CCc3ccc(C(=O)N[C@@H](CCC(=O)O)C(=O)O)cc3)c2c(=O)[nH]1 [Pemetrexed] (partner 0.2 µM) | HCC-15 | 0.262 |
| CC(=O)O[C@@]12CO[C@@H]1C[C@H](O)[C@@]1(C)C(=O)[C@H](O)C3=C(C)[C@@H](OC(=O)[C@H](O)[C@@H](NC(=O)OC(C)(C)C)c4ccccc4)C[C@@](O)([C@@H](OC(=O)c4ccccc4)[C@H]21)C3(C)C [Docetaxel] + CC1(C)CCC(c2ccc(Cl)cc2)=C(CN2CCN(c3ccc(C(=O)NS(=O)(=O)c4ccc(N[C@H](CCN5CCOCC5)CSc5ccccc5)c(S(=O)(=O)C(F)(F)F)c4)cc3)CC2)C1 [Navitoclax] (partner 0.5 µM) | HCC-15 | 0.221 |

Q) State, in one line, measured relative viability of CC(=O)O[C@@]12CO[C@@H]1C[C@H](O)[C@@]1(C)C(=O)[C@H](O)C3=C(C)[C@@H](OC(=O)[C@H](O)[C@@H](NC(=O)OC(C)(C)C)c4ccccc4)C[C@@](O)([C@@H](OC(=O)c4ccccc4)[C@H]21)C3(C)C [Docetaxel] + NC(=O)Nc1cc(-c2cccc(F)c2)sc1C(=O)N[C@H]1CCCNC1 [AZD7762] (partner 0.2 µM)
A) 0.433
